- Test system: Aspergillus fumigatus
- test_name: Antifungal activity against Aspergillus fumigatus ATCC 90906 assessed as inhibition of fungal growth by alamar blue assay
- Assay type: functional, organism-based
- test_conditions: Aspergillus fumigatus, ATCC 90906; read-out: IC50
assay_metric: IC50 (µg/mL)

chemical_smiles | result_qualifier | readout_number
C[n+]1cc(N(CCCCCC2CCCCC2)c2ccccc2)cc2ccccc21.[I-] | = | 4.6
C[n+]1c2ccccc2cc2[nH]c3cccc(Cl)c3c21.[I-] | > | 20
Cc1ccc(N(CCCCCC2CCCCC2)c2ccc[n+](C)c2)cc1.[I-] | = | 1.5
Clc1cccc(Nc2cc3ccccc3[n+](CCCCCC3CCCCC3)c2)c1.[I-] | = | 3.5
Clc1ccc(Nc2cc3ccccc3[n+](CCCCCc3ccccc3)c2)cc1.[I-] | = | 10
C[n+]1c2cccc(Cl)c2cc2[nH]c3ccccc3c21.O=S(=O)([O-])C(F)(F)F | > | 20
C[n+]1cccc(N(CCCCCC2CCCCC2)c2ccccc2Cl)c1.[I-] | = | 18
[I-].c1ccc(Nc2cc3ccccc3[n+](CCCCCC3CCCCC3)c2)cc1 | = | 1
C[n+]1c2ccccc2cc2[nH]c3ccc(Cl)cc3c21.[I-] | > | 20
Cc1cccc(N(CCCCCC2CCCCC2)c2ccc[n+](C)c2)c1.[I-] | = | 8.7
C[n+]1cc(N(CCCCCC2CCCCC2)c2ccccc2Cl)cc2ccccc21.[I-] | = | 3.1
C[n+]1cc(N(CCCCCC2CCCCC2)c2cccc(Cl)c2)cc2ccccc21.[I-] | = | 1
C[n+]1cccc(N(CCCCCC2CCCCC2)c2cccc(C(F)(F)F)c2)c1.[I-] | = | 1.5
C[n+]1cc(N(CCCCCC2CCCCC2)c2ccc(Cl)cc2)cc2ccccc21.[I-] | = | 0.8
C[n+]1cccc(N(CCCCCC2CCCCC2)c2cccc(Cl)c2)c1.[I-] | = | 12.4
CSc1ccc(N(CCCCCC2CCCCC2)c2ccc[n+](C)c2)cc1.[I-] | = | 6.4
CCc1ccc(N(CCCCCC2CCCCC2)c2ccc[n+](C)c2)cc1.[I-] | = | 2.7
